Source listed as patent US6329421A.

assayedSystem: cyclooxygenase-2 (Homo sapiens, UniProt P35354)
Construct: human osteosarcoma 143 cells (which specifically express cyclooxygenase-2); endogenous in cells; host or cells: human osteosarcoma 143 cells
Sequence (P35354 18-604): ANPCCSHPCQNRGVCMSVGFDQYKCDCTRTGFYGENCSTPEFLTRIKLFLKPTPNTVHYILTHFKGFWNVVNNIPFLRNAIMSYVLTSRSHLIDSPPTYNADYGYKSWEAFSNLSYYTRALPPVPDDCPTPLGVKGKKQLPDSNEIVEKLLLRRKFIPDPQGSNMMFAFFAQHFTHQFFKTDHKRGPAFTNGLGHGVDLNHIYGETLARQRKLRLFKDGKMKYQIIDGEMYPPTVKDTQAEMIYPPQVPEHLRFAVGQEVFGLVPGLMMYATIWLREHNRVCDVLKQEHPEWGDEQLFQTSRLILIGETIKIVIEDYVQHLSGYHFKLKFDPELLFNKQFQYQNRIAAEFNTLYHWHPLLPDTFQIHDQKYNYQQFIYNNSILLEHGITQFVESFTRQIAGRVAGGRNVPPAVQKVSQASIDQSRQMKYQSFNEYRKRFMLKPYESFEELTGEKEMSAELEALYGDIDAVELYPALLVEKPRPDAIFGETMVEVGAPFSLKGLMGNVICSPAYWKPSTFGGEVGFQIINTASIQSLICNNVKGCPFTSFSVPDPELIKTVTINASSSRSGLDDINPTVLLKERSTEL
protocolSummary: Inhibition of cyclooxygenase activity: Cox-2 (PGE2 production in response to arachidonic acid, radioimmunoassay; human osteosarcoma 143 cells)
Assay type: cell-based
recordedConditions: Conc. 1000 nM; read-out: Cox-2% inhib.
endpointLabel: inhibition at 1 µM (%)

compound: CS(=O)(=O)c1ccc(-c2c(-c3ccc(F)c(F)c3)sc3c2COC3=O)cc1 [Example 7]
endpointUnit: %
inhibition at 1 µM: 100

I = CS(=O)(=O)c1ccc(-c2c(-c3ccccc3)sc3c2CC(=O)OC3)cc1 [Example 10]
II = CS(=O)(=O)c1ccc(-c2c(-c3ccccc3)sc3ccccc23)cc1 [Example 2]
Field: entry with larger inhibition at 1 µM (options I / II ). Answer format: the label of the selected item.
I
(I: 91%, II: 17%)
